Across several studies, compounds have been characterized by their IC50 on UniProtKB Q12866; a selection follows.

Reference set, count: 4
Request: IC50, test system UniProtKB Q12866, entry CC(C)n1cc(C(=O)Nc2ccc(Oc3ccnc4cc(OCCCN5CCOCC5)c5c(c34)OCCO5)c(Cl)c2)c(=O)n(-c2ccc(F)cc2)c1=O ≤ 50 nM

Request: IC50, test system UniProtKB Q12866, entry COC[C@H](C)Nc1ncc2c([C@H]3CC[C@H](C(=O)N4CCN(C)CC4)CC3)cc([C@H]3CC[C@H](O)CC3)n2n1 ≤ 100 nM

Request: IC50, test system UniProtKB Q12866, entry CCCCC[C@H](C)Nc1ncc2c(-c3ccc(S(=O)(=O)N4CCOCC4)cc3)cc([C@H]3CC[C@H](O)CC3)n2n1 ≤ 100 nM

Request: IC50, test system UniProtKB Q12866, entry COC[C@H](C)Nc1ncc2c(-c3ccnc(N4CCC(C)(O)CC4)c3)cc([C@H]3CC[C@H](O)CC3)n2n1 ≤ 100 nM

Next:
Request: IC50, test system UniProtKB Q12866, entry C[C@H]1CCCN1C1(C)CCc2ccc(-c3cnc4[nH]nc(-c5ccc(S(=O)(=O)C6CC6)cc5)c4c3)cc2CC1 (stereo partly shown) 100 to 1000 nM

Request: IC50, test system UniProtKB Q12866, entry CC(C)(C)OC(=O)N1CCC(n2cc(-c3cnc(N)c(-c4nnc(-c5ccc(F)cc5)o4)c3)cn2)CC1 1000 to 10000 nM

Request: IC50, test system UniProtKB Q12866, entry COc1cc2nccc(Oc3ccc(NC(=O)c4cc(C(C)=O)c(C)n(-c5ccc(F)cn5)c4=O)cc3F)c2nc1OC ≤ 100 nM
